Reference source for all entries: paper PMC4457651

# MEASURED TARGET: CcP(H52L) (Saccharomyces cerevisiae, UniProt P00431, H119L)
# Sequence (P00431 68-361 H119L): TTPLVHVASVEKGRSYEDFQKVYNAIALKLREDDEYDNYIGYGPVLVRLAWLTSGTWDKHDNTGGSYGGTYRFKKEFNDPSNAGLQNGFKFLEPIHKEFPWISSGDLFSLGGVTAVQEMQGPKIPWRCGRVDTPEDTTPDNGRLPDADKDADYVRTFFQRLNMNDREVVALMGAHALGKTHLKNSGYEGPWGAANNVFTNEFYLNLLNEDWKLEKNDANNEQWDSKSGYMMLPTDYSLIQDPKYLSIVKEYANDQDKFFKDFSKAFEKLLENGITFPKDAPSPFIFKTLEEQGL
# EXPERIMENT NOTES: Equilibrium binding to CcP
pKd: −log10 of the molar value.
MEASURED QUANTITY: pKd

Entry O=[N+]([O-])c1c[nH]cn1 — recorded pKd = ~1.52

###

# MEASURED TARGET: recombinant cytochrome c peroxidase (rCcP) (Saccharomyces cerevisiae, UniProt P00431)
# Sequence (P00431 68-361): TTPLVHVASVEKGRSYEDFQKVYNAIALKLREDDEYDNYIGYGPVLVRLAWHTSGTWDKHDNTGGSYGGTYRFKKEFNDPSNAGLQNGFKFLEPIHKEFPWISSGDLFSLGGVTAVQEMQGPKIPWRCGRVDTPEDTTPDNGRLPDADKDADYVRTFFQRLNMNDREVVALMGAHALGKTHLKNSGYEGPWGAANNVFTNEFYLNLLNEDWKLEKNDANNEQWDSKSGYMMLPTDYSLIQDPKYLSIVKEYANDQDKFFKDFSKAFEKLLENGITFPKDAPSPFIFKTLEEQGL
# EXPERIMENT NOTES: Equilibrium binding to heme of rCcP by spectrophotometric titration
MEASURED QUANTITY: Kd

Form field, Kd with recombinant cytochrome c peroxidase (rCcP) (Saccharomyces cerevisiae, UniProt P00431), item O=[N+]([O-])c1c[nH]cn1 : ~100 mM

###

# MEASURED TARGET: yCcP (heme and Trp-191 cavity) (Saccharomyces cerevisiae)
MEASURED QUANTITY: pKd
Reminder that pKd is minus the log10 of a molar concentration.

Form field, pKd with yCcP (heme and Trp-191 cavity) (Saccharomyces cerevisiae), item Cn1ccnc1 : 2.30
